Assay: Transepithelial transport of theaflavins across Caco-2 cell monolayers, with or without efflux transporter inhibitors
Assay type: in vitro ADME, Human
Details: human, Caco-2, absorptive transport, 200 μM theaflavin in HBSS, 2 h incubation, Ctrl (no inhibitor)
assay-readout: Papp A→B at 2 h, 200 μM (×10⁻⁶ cm/s)

Looking up O=C(O[C@@H]1Cc2c(O)cc(O)cc2O[C@@H]1c1cc(O)c(=O)c2c(O)c(O)cc([C@H]3Oc4cc(O)cc(O)c4C[C@H]3OC(=O)c3cc(O)c(O)c(O)c3)c2c1)c1cc(O)c(O)c(O)c1 [TFDG, theaflavin-3, 3’-digallate] , I see its Papp A→B at 2 h, 200 μM listed as 0.364

I: O=C(O[C@@H]1Cc2c(O)cc(O)cc2O[C@@H]1c1cc(O)c(=O)c2c(O)c(O)cc([C@H]3Oc4cc(O)cc(O)c4C[C@H]3O)c2c1)c1cc(O)c(O)c(O)c1 [TF3G, theaflavin-3-gallate]
II: O=c1c(O)cc([C@H]2Oc3cc(O)cc(O)c3C[C@H]2O)cc2c([C@H]3Oc4cc(O)cc(O)c4C[C@H]3O)cc(O)c(O)c12
III: O=C(O[C@@H]1Cc2c(O)cc(O)cc2O[C@@H]1c1cc(O)c(O)c2c(=O)c(O)cc([C@H]3Oc4cc(O)cc(O)c4C[C@H]3O)cc12)c1cc(O)c(O)c(O)c1 [TF3’G, theaflavin-3’-gallate]
stdin: Would you mind ranking these compounds by ascending Papp A→B at 2 h, 200 μM? Labels, requested order.
stdout: III, I, II

* * *

Assay: Transepithelial transport of theaflavins across Caco-2 cell monolayers, with or without efflux transporter inhibitors
Type: in vitro ADME, Human
Settings: human, Caco-2, secretory transport, 200 μM theaflavin in HBSS, 2 h incubation, Ctrl (no inhibitor)
assay-readout: Papp B→A at 2 h, 200 μM (×10⁻⁶ cm/s)

1: O=C(O[C@@H]1Cc2c(O)cc(O)cc2O[C@@H]1c1cc(O)c(=O)c2c(O)c(O)cc([C@H]3Oc4cc(O)cc(O)c4C[C@H]3OC(=O)c3cc(O)c(O)c(O)c3)c2c1)c1cc(O)c(O)c(O)c1 [TFDG, theaflavin-3, 3’-digallate]
2: O=C(O[C@@H]1Cc2c(O)cc(O)cc2O[C@@H]1c1cc(O)c(O)c2c(=O)c(O)cc([C@H]3Oc4cc(O)cc(O)c4C[C@H]3O)cc12)c1cc(O)c(O)c(O)c1 [TF3’G, theaflavin-3’-gallate]
3: O=c1c(O)cc([C@H]2Oc3cc(O)cc(O)c3C[C@H]2O)cc2c([C@H]3Oc4cc(O)cc(O)c4C[C@H]3O)cc(O)c(O)c12 [TF, theaflavin]
4: O=C(O[C@@H]1Cc2c(O)cc(O)cc2O[C@@H]1c1cc(O)c(=O)c2c(O)c(O)cc([C@H]3Oc4cc(O)cc(O)c4C[C@H]3O)c2c1)c1cc(O)c(O)c(O)c1 [TF3G, theaflavin-3-gallate]
stdin: Ranking criterion: Papp B→A at 2 h, 200 μM, increasing numeric value. Items: as listed above. Labels, requested order.
stdout: 2, 4, 3, 1
(2: 0.072 ×10⁻⁶ cm/s, 4: 0.168 ×10⁻⁶ cm/s, 3: 0.342 ×10⁻⁶ cm/s, 1: 0.569 ×10⁻⁶ cm/s)

* * *

Test: Transepithelial transport of theaflavins across Caco-2 cell monolayers, with or without efflux transporter inhibitors
Type: in vitro ADME, Human
Details: human, Caco-2, with 100 μM Vep (P-gp inhibitor), secretory transport, 2 h incubation, + 100 μM Vep (P-gp inhibitor)
assay-readout: Papp B→A at 2 h, 200 μM (×10⁻⁶ cm/s)

I: O=C(O[C@@H]1Cc2c(O)cc(O)cc2O[C@@H]1c1cc(O)c(=O)c2c(O)c(O)cc([C@H]3Oc4cc(O)cc(O)c4C[C@H]3O)c2c1)c1cc(O)c(O)c(O)c1 [TF3G, theaflavin-3-gallate]
II: O=c1c(O)cc([C@H]2Oc3cc(O)cc(O)c3C[C@H]2O)cc2c([C@H]3Oc4cc(O)cc(O)c4C[C@H]3O)cc(O)c(O)c12
III: O=C(O[C@@H]1Cc2c(O)cc(O)cc2O[C@@H]1c1cc(O)c(O)c2c(=O)c(O)cc([C@H]3Oc4cc(O)cc(O)c4C[C@H]3O)cc12)c1cc(O)c(O)c(O)c1 [TF3’G, theaflavin-3’-gallate]
IV: O=C(O[C@@H]1Cc2c(O)cc(O)cc2O[C@@H]1c1cc(O)c(=O)c2c(O)c(O)cc([C@H]3Oc4cc(O)cc(O)c4C[C@H]3OC(=O)c3cc(O)c(O)c(O)c3)c2c1)c1cc(O)c(O)c(O)c1 [TFDG, theaflavin-3, 3’-digallate]
stdin: Ranking criterion: Papp B→A at 2 h, 200 μM, increasing numeric value. Items: as listed above. Labels, requested order.
stdout: III, I, II, IV
(III: 0.059 ×10⁻⁶ cm/s, I: 0.173 ×10⁻⁶ cm/s, II: 0.301 ×10⁻⁶ cm/s, IV: 0.546 ×10⁻⁶ cm/s)
